Test: Dye solubility in water at 20° C., determined spectroscopically
Assay type: physicochemical
Details: heated at 50° C. 1 hour, cooled to 20° C., filtered
Please note: Y applies when Solubility (in g per 100 ml) is 30 g per 100 ml or greater, and N applies otherwise.

* O=C(Nc1cc(S(=O)(=O)O)cc2cc(S(=O)(=O)O)c(N=Nc3cc(Nc4nc(SCCCS(=O)(=O)O)nc(SCCCS(=O)(=O)O)n4)ccc3S(=O)(=O)O)c(O)c12)c1ccccc1 | Y
* COc1cc(N=Nc2cc(S(=O)(=O)O)c3cccc(S(=O)(=O)O)c3c2)c(C)cc1Nc1nc(SCCCS(=O)(=O)O)nc(SCCCS(=O)(=O)O)n1 | Y
* COc1cc(N=Nc2c(N)ccc3cc(S(=O)(=O)O)cc(O)c23)c(C)cc1Nc1nc(NCCO)nc(Nc2cccc(S(=O)(=O)O)c2)n1 [dye 1, reference compound] | N

[Q] Confirm if Solubility (in g per 100 ml) reported for the compound Nc1ccc2cc(S(=O)(=O)O)cc(O)c2c1N=Nc1ccc(Nc2nc(SCCCS(=O)(=O)O)nc(SCCCS(=O)(=O)O)n2)cc1S(=O)(=O)O is 30 g per 100 ml or above.
[A] Y

[Q] Decide: is the reported value of Solubility (in g per 100 ml) for CCCCCCNc1nc(NCCCCCC)nc(Nc2cc(S(=O)(=O)O)cc3cc(S(=O)(=O)O)c(N=Nc4ccccc4S(=O)(=O)O)c(O)c23)n1 [dye 5, reference compound] equal to or greater than 30 g per 100 ml?
[A] N
